system: Mycobacterium tuberculosis; assay: Antibacterial activity against Mycobacterium tuberculosis H37Ra ATCC 25177 incubated for 7 days by resazurin dye based fluorimetric assay; format: functional, organism-based; conditions: H37Ra ATCC 25177, 168 h
Parameter: IC50. Scope: all listed entries.

Answered examples (4):
Problem: For the molecule O=C1C2=C(C(=O)c3c1cnc1cc(C(F)(F)F)ccc31)C1CCC2C1 (stereo not given) , what IC50 is on record?
Solution: 2000 to 4000 nM

Problem: Can you handle O=C1C2=C(C(=O)c3c1cnc1cc(F)ccc31)C1CCC2C1 (stereo not given) next?
Solution: 1000 to 2000 nM

Problem: Can you handle NNC(=O)c1ccncc1 next?
Solution: < 250 nM

Problem: Can you handle O=C1C2=C(C(=O)c3c1cnc1ccc(F)cc31)C1CCC2C1 (stereo not given) next?
Solution: 4000 to 8000 nM

New cases:
Problem: For the molecule O=C1C2=C(C(=O)c3c1cnc1c(F)cccc31)C1CCC2C1 (stereo not given) , what IC50 is on record?
Solution: 1000 to 2000 nM

----------
test system: Pseudomonas aeruginosa; assay: Antibacterial activity against Pseudomonas aeruginosa ATCC 9027 incubated for 24 hrs by resazurin dye based fluorimetric assay; format: functional, organism-based; settings: ATCC 9027, 24 h
measured property: IC50

Problem: For the molecule O=C1C2=C(C(=O)c3c1cnc1ccc(F)cc31)C1CCC2C1 (centres undefined) , what IC50 is on record?
Solution: > 64 µM

Problem: Can you handle O=C1C2=C(C(=O)c3c1cnc1ccccc31)C1CCC2C1 (centres undefined) next?
Solution: > 64 µM

Problem: Can you handle CCn1cc(C(=O)O)c(=O)c2cc(F)c(N3CCNCC3)cc21 next?
Solution: > 0.5 µM

Then this molecule:
Problem: For the molecule O=C1C2=C(C(=O)c3c1cnc1c(F)cccc31)C1CCC2C1 (centres undefined) , what IC50 is on record?
Solution: > 64 µM
